EXPERIMENT_NOTES: Half-life in Human Liver Microsomes (HLM)
Assay type: in vitro ADME
MEASUREMENT_CONTEXT: human, human liver microsomes, pH 7.4; 1 μM compound, 0.78 mg/mL HLM, 37° C.; Half-life=ln 2/k
Method: Test compounds (1 μM) are incubated with 3.3 mM MgCl2 and 0.78 mg/mL HLM (HL101) in 100 mM potassium phosphate buffer (pH 7.4) at 37° C. on the 96-deep well plate. The reaction mixture is split into two groups, a non-P450 and a P450 group. NADPH is only added to the reaction mixture of the P450 group. […] The compound concentration in supernatant is measured by LC/MS/MS system. […]
READOUT_TYPE: half-life at 1 μM (min)

{"COMPOUND": "COc1cc(OC)c(C(c2ccccc2)C(C)(C)C(=O)N2CC(C)OC(C)C2)c(OC)c1 (stereo not shown) [Compound 150, reference compound]", "half-life at 1 μM, min": 8}
{"COMPOUND": "COc1ccc2ccccc2c1C(c1ccc(F)cc1)C(C)(C)C(=O)N1CC(C)CC(C)C1 (stereo not shown) [Compound 157, reference compound]", "half-life at 1 μM, min": 6.9}

[A] CC1CC(C)CN(C(=O)CC(c2ccc(-n3cncn3)cc2)c2ccc3c(c2)OCO3)C1 (stereo not shown) [Compound 141]
[B] COc1cc(O)c(C(CC(=O)N2CC(C)CC(C)C2)c2ccc(C(=O)O)cc2)c(OC)c1 (stereo not shown) [Compound 99]
### Prompt Pick one: A or B . Which has the bigger half-life at 1 μM number? Record your answer as the label of the chosen record.
### Response B
(B: 64.2 min, A: 12.9 min)
